Test system: Streptococcus Sp
METHOD: standard plate dilution method, Streptococcus sp.
Type: cell-based
Set-up: key: +: active; -: inactive
CONDITION CONTEXT: agar plates, 1 to 100 milligrams/liter
METRIC NAME: Microorganism SS (growth inhibition)

These recorded examples may help you get a feel for the data.
(Q) Using the record for COc1cc2c3c(c1)c(=O)c(C(=O)O)cn3C(C)CO2 (stereo not shown) [Example 20] , state its measured Microorganism SS (growth inhibition).
(A) -

(Q) Using the record for Cc1cc2c3c(c1C)c(=O)c(C(=O)O)cn3C(C)CO2 (stereo not shown) [Example 40 (acid)] , state its measured Microorganism SS (growth inhibition).
(A) +

(Q) Using the record for Cc1cc(Cl)c2c(=O)c(C(=O)O)cn3c2c1OCC3C (stereo not shown) [Example 41 (acid)] , state its measured Microorganism SS (growth inhibition).
(A) -

(Q) Using the record for Cc1cc2c3c(c1)c(=O)c(C(=O)O)cn3C(C)CO2 (stereo not shown) [Example 16] , state its measured Microorganism SS (growth inhibition).
(A) +

(Q) Using the record for CC1COc2ccc([N+](=O)[O-])c3c(=O)c(C(=O)O)cn1c23 (stereo not shown) [Example 44] , state its measured Microorganism SS (growth inhibition).
(A) -

(Q) Using the record for CC1COc2cc(Cl)cc3c(=O)c(C(=O)O)cn1c23 (stereo not shown) [Example 23] , state its measured Microorganism SS (growth inhibition).
(A) +

(Q) Using the record for Cc1ccc2c3c1c(=O)c(C(=O)O)cn3C(C)CO2 (stereo not shown) [Example 26] , state its measured Microorganism SS (growth inhibition).
(A) +

(Q) Using the record for CC1COc2cc(F)cc3c(=O)c(C(=O)O)cn1c23 (stereo not shown) [Example 24] , state its measured Microorganism SS (growth inhibition).
(A) +

(Q) Using the record for O=C(O)c1cn2c3c(cccc3c1=O)OCC2 [Example 18] , state its measured Microorganism SS (growth inhibition).
(A) -

Please examine the following record next.
(Q) Using the record for CC1COc2c(Cl)cc([N+](=O)[O-])c3c(=O)c(C(=O)O)cn1c23 (stereo not shown) [Example 38 (acid)] , state its measured Microorganism SS (growth inhibition).
(A) -
